Source: paper PMC8699473

- experiment: Long-term stability in spiked pooled human plasma
- test-context: validation standard LLOV
Some compounds, each annotated with its measured Long-term stability, 2 month, -20°C Accuracy [%].
Give the value, in units of %, as a plain number.

Example entries and their recorded answers appear below.
{"columns": ["chemical-string", "recorded-result"],
 "data": [
  ["C=CC(=O)Nc1cc(Nc2nccc(-c3cn(C)c4ccccc34)n2)c(OC)cc1N(C)CCN(C)C", 84.8],
  ["COc1cc2nccc(Oc3ccc(NC(=O)NC4CC4)c(Cl)c3)c2cc1C(N)=O", 102.7],
  ["CO[C@@H]1[C@H](N(C)C(=O)c2ccccc2)C[C@H]2O[C@]1(C)n1c3ccccc3c3c4c(c5c6ccccc6n2c5c31)C(=O)NC4", 106.5]
]}

"CS(=O)(=O)CCNCc1ccc(-c2ccc3ncnc(Nc4ccc(OCc5cccc(F)c5)c(Cl)c4)c3c2)o1" yielded Long-term stability, 2 month, -20°C Accuracy [%] of 80.7

###

Each entry below carries its recorded Long-term stability, 2 month, -20°C Accuracy [%].
- experiment: Long-term stability in spiked pooled human plasma
- test-context: validation standard 2xLLOV

{"columns": ["chemical-string", "recorded-result"],
 "data": [
  ["C=CC(=O)Nc1cc(Nc2nccc(-c3cn(C)c4ccccc34)n2)c(OC)cc1N(C)CCN(C)C", "89.2%"],
  ["Cn1cnc2c(F)c(Nc3ccc(Br)cc3F)c(C(=O)NOCCO)cc21", "105.7%"],
  ["Cc1ccc(Nc2nccc(N(C)c3ccc4c(C)n(C)nc4c3)n2)cc1S(N)(=O)=O", "100.4%"]
]}

Record summary for "CNC(=O)c1cc(Oc2ccc(NC(=O)Nc3ccc(Cl)c(C(F)(F)F)c3)c(F)c2)ccn1" : reported Long-term stability, 2 month, -20°C Accuracy [%] = 105.6%

The reported value for "CN(C)C(=O)c1cc2cnc(Nc3ccc(N4CCNCC4)cn3)nc2n1C1CCCC1" in terms of Long-term stability, 2 month, -20°C Accuracy [%] is 109.0%

###

- experiment: Long-term stability in spiked pooled human plasma
- test-context: validation standard MOV
Each entry below lists one item and its recorded Long-term stability, 3 month, -80°C Accuracy [%] value.
The reply must contain the numeric value and, after it, the unit.

Study these solved cases before continuing.
{"columns": ["molecule", "recorded-result"],
 "data": [
  ["C[C@@H](Oc1cc(-c2cnn(C3CCNCC3)c2)cnc1N)c1c(Cl)ccc(F)c1Cl [Crizotinib]", "95.1%"],
  ["C[C@H]1Oc2cc(cnc2N)-c2c(nn(C)c2C#N)CN(C)C(=O)c2ccc(F)cc21 [Lorlatinib]", "89.2%"],
  ["CN(C)C/C=C/C(=O)Nc1cc2c(Nc3ccc(F)c(Cl)c3)ncnc2cc1O[C@H]1CCOC1 [Afatinib]", "96.4%"],
  ["COc1cc2nccc(Oc3ccc(NC(=O)C4(C(=O)Nc5ccc(F)cc5)CC4)cc3)c2cc1OC [Cabozantinib]", "98.9%"],
  ["CNC(=O)c1ccc(N2C(=S)N(c3cnc(C#N)c(C(F)(F)F)c3)C(=O)C23CCC3)cc1F [Apalutamide]", "89.7%"],
  ["CNC(=O)c1ccc(N2C(=S)N(c3ccc(C#N)c(C(F)(F)F)c3)C(=O)C2(C)C)cc1F [Enzalutamide]", "90.6%"],
  ["Cc1ccc(Nc2nccc(N(C)c3ccc4c(C)n(C)nc4c3)n2)cc1S(N)(=O)=O [Pazopanib]", "103.3%"],
  ["COc1cc2c(Nc3ccc(Br)cc3F)ncnc2cc1OCC1CCN(C)CC1 [Vandetanib]", "104.4%"],
  ["COc1cc2nccc(Oc3ccc(NC(=O)Nc4cc(C)on4)c(Cl)c3)c2cc1OC [Tivozanib]", "98.0%"]
]}

Could you now consider this next molecule?
Short answer for Cn1cnc2c(F)c(Nc3ccc(Br)cc3F)c(C(=O)NOCCO)cc21 [Binimetinib] : Long-term stability, 3 month, -80°C Accuracy [%] was 98.7%

###

- experiment: Short-term stability in spiked pooled human plasma (bench-top, 4 °C, 56 °C)
- test-context: validation standard MOV
Quick reference: Short-time stability (24h, RT, with daylight) Accuracy [%] of the listed items.

Some solved entries appear below for comparison.
{"columns": ["molecule", "recorded-result"],
 "data": [
  ["Cc1ccc(Nc2nccc(N(C)c3ccc4c(C)n(C)nc4c3)n2)cc1S(N)(=O)=O [Pazopanib]", "99.1%"],
  ["CNC(=O)c1ccc(N2C(=S)N(c3cnc(C#N)c(C(F)(F)F)c3)C(=O)C23CCC3)cc1F [Apalutamide]", "75.7%"],
  ["C[C@H]1Oc2cc(cnc2N)-c2c(nn(C)c2C#N)CN(C)C(=O)c2ccc(F)cc21 [Lorlatinib]", "100.2%"],
  ["Cn1cnc2c(F)c(Nc3ccc(Br)cc3F)c(C(=O)NOCCO)cc21 [Binimetinib]", "86.5%"],
  ["Cc1ccc(NC(=O)c2ccc(CN3CCN(C)CC3)cc2)cc1Nc1nccc(-c2cccnc2)n1 [Imatinib]", "93.6%"]
]}

In plain terms, Cc1nc(Nc2ncc(C(=O)Nc3c(C)cccc3Cl)s2)cc(N2CCN(CCO)CC2)n1 [Dasatinib] has a documented Short-time stability (24h, RT, with daylight) Accuracy [%] of 91.7%

Value of Short-time stability (24h, RT, with daylight) Accuracy [%] reported for the molecule Cc1ccc(C(=O)Nc2ccc(CN3CCN(C)CC3)c(C(F)(F)F)c2)cc1C#Cc1cnc2cccnn12 [Ponatinib] is 99.8%

CNC(=O)c1cc(Oc2ccc(NC(=O)Nc3ccc(Cl)c(C(F)(F)F)c3)cc2)ccn1 [Sorafenib] yielded Short-time stability (24h, RT, with daylight) Accuracy [%] of 89.2%

The reported value for COC(=O)c1ccc2c(c1)NC(=O)/C2=C(\Nc1ccc(N(C)C(=O)CN2CCN(C)CC2)cc1)c1ccccc1 [Nintedanib] in terms of Short-time stability (24h, RT, with daylight) Accuracy [%] is 104.3%

Measured Short-time stability (24h, RT, with daylight) Accuracy [%] of CCN(CC)CCNC(=O)c1c(C)[nH]c(/C=C2\C(=O)Nc3ccc(F)cc32)c1C [Sunitinib] : 83.0%

###

- experiment: Short-term stability in spiked pooled human plasma (bench-top, 4 °C, 56 °C)
- test-context: validation standard LLOV
quantity-name: Short-time stability (24h, 4°C, without daylight) Accuracy [%] (%)
Just the number please, in %, no unit attached.

{"columns": ["molecule", "recorded-result"],
 "data": [
  ["COc1cc2c(Nc3ccc(Br)cc3F)ncnc2cc1OCC1CCN(C)CC1 [Vandetanib]", 91.7]
]}

Data point: COc1cc2ncnc(Nc3ccc(F)c(Cl)c3)c2cc1OCCCN1CCOCC1 [Gefitinib] ; Short-time stability (24h, 4°C, without daylight) Accuracy [%] = 90.9

response.value for CC(=O)Nc1cccc(-n2c(=O)n(C3CC3)c(=O)c3c(Nc4ccc(I)cc4F)n(C)c(=O)c(C)c32)c1 [Trametinib] (field: Short-time stability (24h, 4°C, without daylight) Accuracy [%]) = 90.4

###

- experiment: Short-term stability in spiked pooled human plasma (bench-top, 4 °C, 56 °C)
- test-context: validation standard ULOV
yes means recorded Short-time stability (24h, RT, without daylight) Accuracy [%] is 90% or above; no means it is below 90%.

Use these answered entries as a reference point.
{"columns": ["compound", "cat"],
 "data": [
  ["CN(C)C(=O)c1cc2cnc(Nc3ccc(N4CCNCC4)cn3)nc2n1C1CCCC1 [Ribociclib]", "no"],
  ["CS(=O)(=O)CCNCc1ccc(-c2ccc3ncnc(Nc4ccc(OCc5cccc(F)c5)c(Cl)c4)c3c2)o1 [Lapatinib]", "yes"],
  ["COc1cc2nccc(Oc3ccc(NC(=O)Nc4cc(C)on4)c(Cl)c3)c2cc1OC [Tivozanib]", "yes"],
  ["CC1(C)CCC(CN2CCN(c3ccc(C(=O)NS(=O)(=O)c4ccc(NCC5CCOCC5)c([N+](=O)[O-])c4)c(Oc4cnc5[nH]ccc5c4)c3)CC2)=C(c2ccc(Cl)cc2)C1 [Venetoclax]", "yes"],
  ["CCOc1cc2ncc(C#N)c(Nc3ccc(OCc4ccccn4)c(Cl)c3)c2cc1NC(=O)/C=C/CN(C)C [Neratinib]", "no"],
  ["NC(=O)c1cccc2cn(-c3ccc([C@@H]4CCCNC4)cc3)nc12 [Niraparib]", "yes"],
  ["O=C(Nc1cnn2ccc(N3CCC[C@@H]3c3cc(F)ccc3F)nc12)N1CC[C@H](O)C1 [Larotrectinib]", "yes"],
  ["Nc1cccc2c1C(=O)N(C1CCC(=O)NC1=O)C2=O (centres unmarked) [Pomalidomide]", "no"],
  ["C[C@]12CC[C@H](O)CC1=CC[C@@H]1[C@@H]2CC[C@]2(C)C(c3cccnc3)=CC[C@@H]12 [Abiraterone]", "yes"],
  ["CN(C)C/C=C/C(=O)Nc1cc2c(Nc3ccc(F)c(Cl)c3)ncnc2cc1O[C@H]1CCOC1 [Afatinib]", "no"]
]}

Okay, now this compound:
Is the recorded value of Short-time stability (24h, RT, without daylight) Accuracy [%] equal to or greater than 90% for this compound? CS(=O)(=O)c1ccc(C(=O)Nc2ccc(Cl)c(-c3ccccn3)c2)c(Cl)c1 [Vismodegib]
yes
